B1: TMEM175 (parent)
chain: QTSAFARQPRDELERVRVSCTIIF

Variants of: B1
Assay: protein stability index of a GFP-peptide fusion (GPS, HEK-293T) (PSI 1-6); higher = more stable;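 note: lentivirally expressed fusions sorted by FACS into six bins by GFP to DsRed ratio, PSI derived from sequencing read proportions per bin multiplied by bin number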
Conditions: c terminus: a fixed tail appended
Threshold rule: protein stability index greater than or equal to 4 is t; below that, f.

Data request: Would you say R15D shows protein stability index at minimum 4?
Data returned: f

Data request: Can you check V18T next?
Data returned: f

Data request: Likewise for V16Y ?
Data returned: f

Data request: What do you have for T2Q ?
Data returned: t

Data request: Next variant: R15T
Data returned: t

Data request: // repeat for R15A and report
Data returned: f

Data request: Okay, and I22C ?
Data returned: f

Data request: Quick one: Q1F
Data returned: f

Data request: Then what about the variant F24M ?
Data returned: f
